- Test system: P388 mouse leukemia cells
- assay_name: Antitumor effect on P388 mouse leukemia tumor in ICR mice
- Format: in vivo
- settings: 10 mg/kg/day, i.p., 5 days
- Protocol: Measurement of the antitumor effect on P338 mouse leukemia tumor 1×10^5 P388 mouse leukemia cells were intraperitoneally administered to ICR mice. After the lapse of 24 hours, each of the test compounds shown in Table II was intraperitoneally administered to the mice for 5 days. The periods of survival of these animals were examined and the increase of their life span (ILS%) were determined.
What Survival was measured for each of the following?
Write it as a number; the unit days goes unstated.

## Input # Survival lookup, item CCCCCCCC[C@@]1(O)C=CC(=O)/C1=C\CCCCCC(=O)OC [Compound 144]
## Output 12.2

## Input # Survival lookup, item COC(=O)CCCCCC=C1C(=O)C(Cl)=CC1(O)CCCc1ccc(OC)c(OC)c1 (centres unmarked) [Compound 152]
## Output 11.7

## Input # Survival lookup, item O=C1C=CC(O)(CCCCOc2ccccc2)C1=C/C=C/C(O)CCCO (centres unmarked) [Compound 148]
## Output 12.7

## Input # Survival lookup, item CCCCCCCCC1(O)C=C(Cl)C(=O)C1=CCCCCCC(=O)OC (centres unmarked) [Compound 154]
## Output 10.5

## Input # Survival lookup, item CCCCCCCC[C@@]1(O)C=CC(=O)/C1=C/CCCCCC(=O)OC [Compound 142]
## Output 11.3
